# Experiment notes: NCI Yeast Anticancer Drug Screen. Data for the cln2 rad14 strain (AID 165);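 also: 0% = growth equal to vehicle treated cultures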
# Condition parameters: S. cerevisiae cln2 rad14 strain, at 5.0 µM (retest, dose inferred, filed as 0.5)
The panel holds about 79,000 compounds, 15% with a hit somewhere; the sample as a whole holds those more often. Active and inactive are the calls of the source. Rule as the data show it: active = growth inhibition above about 70%; inactive = the rest.
The reply should be one of these categories: Yes for active, No for inactive

Completed entries (count: 5):
molecule=Cc1n[n+]([O-])c(C)cc1[N+](=O)[O-] group=No
molecule=CCCCCCNC(=S)N/N=C(\C)c1ccccn1 group=Yes
molecule=Nc1cccc2c(O)cccc12 group=No
molecule="CCCCCCC(Sc1n[nH]c(=O)[nH]c1=O)C(=O)OCC (stereo unspecified)" group=No
molecule=O=C(Nc1cccc(Cl)c1)Oc1c(Br)cc(Br)cc1Br group=No

Enquiry: Tell me the assay call for `O=C(O)CCSc1ncnc2nc[nH]c12` please.
Return: No

Enquiry: Tell me the assay call for `CC(C)(C)c1cc(C(=O)[O-])c([OH2+])c(C(C)(C)C)c1.CC(C)(C)c1cc(C(=O)[O-])c([OH2+])c(C(C)(C)C)c1.[Mn+2]` please.
Return: No

Enquiry: Tell me the assay call for `O=C(c1ccccc1)c1c(CO[N+](=O)[O-])n([O-])c2ccccc2[n+]1=O` please.
Return: No

Enquiry: Tell me the assay call for `C/C(=N/NC(=S)NCc1ccccc1)c1ncccn1` please.
Return: No

Enquiry: Tell me the assay call for CC1CN(C(=S)NNC(C)c2cc3ccccc3cn2)CC(C)O1 (stereo unspecified) please.
Return: No

Enquiry: Tell me the assay call for CCC(C)COC(=O)c1ccc([N+](=O)[O-])cc1 (stereo unspecified) please.
Return: No

* * *

# Experiment notes: NCI Yeast Anticancer Drug Screen. Data for the mlh1 rad18 strain (AID 175)
# Condition parameters: S. cerevisiae mlh1 rad18 strain growth inhibition; at 50.0 µM (retest, dose inferred, filed as 5.0)
The panel holds about 79,000 compounds, 15% with a hit somewhere; the sample as a whole holds those more often. Calls of active or inactive are those of the source. No stated cut-off is given here; in the data, active means growth inhibition above about 70%; inactive means the rest.
The reply should be one of these categories: 1 (yes) for active, 0 (no) for inactive

cpd_smiles=CSC(=S)n1nc(-c2ccccc2)c(N=Nc2ccccc2[N+](=O)[O-])c1C group="1 (yes)"
cpd_smiles=CCCCOC(=O)c1cnc[nH]c1=O group="0 (no)"
cpd_smiles=CN(Cc1cc(C(C)(C)C)cc(Br)c1O)Cc1cc(C(C)(C)C)cc(Br)c1O group="1 (yes)"

Enquiry: Tell me the assay call for `O=C1/C(=C/c2cccc(Br)c2)CCc2ccccc21` please.
Return: 0 (no)

Enquiry: Tell me the assay call for `CCNC(=S)N/N=C(\C)c1cccc(C)n1` please.
Return: 0 (no)

Enquiry: Tell me the assay call for `Cc1ccccc1C(O)(c1ccccc1C)C1(O)CCN(C)CC1` please.
Return: 0 (no)

* * *

# Experiment notes: NCI Yeast Anticancer Drug Screen. Data for the mec2-1 strain (AID 157)
# Condition parameters: S. cerevisiae mec2-1 strain, at 5.0 µM (retest, dose inferred, filed as 0.5), hits give high values
Compounds without any hit were thinned out: in the full panel of roughly 79,000, 15% have a hit.
Assay endpoint: growth inhibition (%)
Expressed in %, but write only the number.

Some solved entries appear below for comparison.
compound="CN(C)CC(CN1CCCC1)C(=O)c1ccccc1 (stereo unspecified)" experimental_value=-2
compound=c1ccc2nc3ccccc3nc2c1 experimental_value=-3
compound=O=[N+]([O-])c1ccc(CCCCc2ccc([N+](=O)[O-])cc2)cc1 experimental_value=3
compound="CCOC(=O)C(=O)C1CCCCC1=O (stereo unspecified)" experimental_value=6
compound=Clc1ccc(C(c2ccc(Cl)cc2)c2cncnc2)cc1 experimental_value=6
compound=CCOC(=O)NC(NNc1ccc([N+](=O)[O-])cc1[N+](=O)[O-])(C(F)(F)F)C(F)(F)F experimental_value=-3
compound=C[C@@H]1CC=C[C@@H](NC(=O)OCc2ccccc2)[C@H]1C=O experimental_value=-5
compound="CCCCCCCCCCCC(=O)OCC1OC(OC)C(NC(=O)N(CCCl)N=O)C(O)C1O (stereo unspecified)" experimental_value=20
compound=CC1(C)CC(=O)C(/C=N/c2nc(-c3cccc([N+](=O)[O-])c3)cs2)=C(O)C1 experimental_value=15
compound="COc1ccc(NC(=O)CCC(=O)C(C)C(=O)c2ccccc2)cc1 (stereo unspecified)" experimental_value=-1

Enquiry: I'd like to know its growth inhibition. The compound in question is `CCOC(=O)[C@@H](F)[C@H](Br)C(=O)OCC`
Return: 58

* * *

# Experiment notes: NCI Yeast Anticancer Drug Screen. Data for the bub3 strain (AID 167)
# Condition parameters: S. cerevisiae bub3 mutant strain, at 50.0 µM, hits give high values
# Protocol: Growth inhibition of yeast strains with defined genetic alterations is measured as a screen for potential anti-cancer activity. Selected strains with alterations in DNA damage repair or cell cycle control were exposed to compounds and growth inhibition was measured relative to vehicle treated controls. The strain used in this assay is bub3
Compounds without any hit were thinned out: in the full panel of roughly 79,000, 15% have a hit.
Assay endpoint: growth inhibition (%)
Expressed in %, but write only the number.

Some solved entries appear below for comparison.
compound=COC(=O)c1n[nH]c(C(C)C)c1N=NN(C)C unit_spec=% experimental_value=98.3
compound=O=C(C(=Cn1c(=S)[nH]c2ccc([N+](=O)[O-])cc21)C(=O)c1ccccc1)c1ccccc1 unit_spec=% experimental_value=94.9

Enquiry: I'd like to know its growth inhibition. The compound in question is `CCOc1ccccc1C(=O)Nc1cc(C)nn1-c1ccccc1`
Return: 99.3

Enquiry: I'd like to know its growth inhibition. The compound in question is `CCC(=O)C(CC)(c1ccc(OC(C)=O)cc1)c1ccc(OC(C)=O)cc1`
Return: 35.1

* * *

# Experiment notes: NCI Yeast Anticancer Drug Screen. Data for the sgs1 mgt1 strain (AID 161);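 also: 0% = growth of cultures given vehicle only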
# Condition parameters: S. cerevisiae sgs1 mgt1 strain, at 50.0 µM (retest, dose inferred, filed as 5.0)
About 79,000 compounds went through this panel and 15% of them were active in at least one assay; those are over-represented in the sample as a whole. The source made the active and inactive calls. No stated cut-off is given here; in the data, active means growth inhibition above about 70%; inactive means the rest.
The reply should be one of these categories: active, inactive

Completed entries (count: 3):
compound=COc1ccc2c(c1)CC/C(=C\c1ccc(OCCN(C)C)cc1)C2=O group=inactive
compound=CCNC(=S)N/N=C(/C)c1cccc(/C(C)=N\NC(=S)NCC)n1 group=inactive
compound="CCOC(=O)N1c2ccc3ccccc3c2C=CC1C#N (stereo not drawn)" group=inactive

Enquiry: Tell me the assay call for CC12CCCCC1CCC(Br)C2=O (stereo not drawn) please.
Return: inactive

Enquiry: Tell me the assay call for `O/N=C1\c2ccccc2-c2ccc(Cl)cc21` please.
Return: inactive

Enquiry: Tell me the assay call for `CC(=O)c1c(-c2ccc(Cl)cc2)c(-c2ccc(Cl)cc2)nn(CCO)c1=O` please.
Return: active

* * *

# Experiment notes: NCI Yeast Anticancer Drug Screen. Data for the rad50 strain (AID 155);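 also: 0% = growth of vehicle-only cultures of the same strain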
# Condition parameters: S. cerevisiae rad50 strain growth inhibition; at 50.0 µM; hits give high values
Compounds without any hit were thinned out: in the full panel of roughly 79,000, 15% have a hit.
just bin them by growth inhibition: lo = under 30%, med = from 30% up to 90%, hi = 90% and over

Completed entries (count: 5):
molecule="O=C1C(CN2CCCC2)C(O)=C(c2ccccc2)N1c1ccccc1 (stereo unspecified)" group=med
molecule="O=[N+]([O-])c1ncn(C2OC(CO)C(O)C2O)c1S (stereo unspecified)" group=lo
molecule="CC1CN(CCCN2c3ccccc3Sc3ccc(Cl)cc32)C(C)(C)C1 (stereo unspecified)" group=hi
molecule=CC(=O)N=C1N(/C=C2\C(=O)Oc3ccccc3C2=O)C(=O)/C(=C/c2cccc(Cl)c2Cl)N1C group=lo
molecule=Cc1ccc(S)c(S)c1 group=med

Enquiry: For `Cn1cnc([N+](=O)[O-])c1Sc1ccc(Cl)cc1` , which growth inhibition bin applies?
Return: hi

Enquiry: For N#CC12CC3=C(N=C1NC1=C(CCc4ccccc41)C2)c1ccccc1CC3 (stereo unspecified) , which growth inhibition bin applies?
Return: med

Enquiry: For CN(C)C1C=CCC(c2ccccc2)C1[N+](=O)[O-] (stereo unspecified) , which growth inhibition bin applies?
Return: hi

Enquiry: For `O=S(=O)(c1ccc(NC(=S)NCc2ccncc2)cc1)N1CCCCC1` , which growth inhibition bin applies?
Return: lo

Enquiry: For `c1ccc(-c2c[nH]c(-c3ccccc3)c2-c2ccccc2)cc1` , which growth inhibition bin applies?
Return: hi

* * *

# Experiment notes: NCI Yeast Anticancer Drug Screen. Data for the mlh1 rad18 strain (AID 175)
# Condition parameters: S. cerevisiae mlh1 rad18 strain growth inhibition; at 5.0 µM (retest, dose inferred, filed as 0.5); hits give high values
The panel holds about 79,000 compounds, 15% with a hit somewhere; the sample as a whole holds those more often. Active and inactive are the calls of the source. Rule as the data show it: active = growth inhibition above about 70%; inactive = the rest.
Quick list: growth inhibition per entry.

compound=CC(C)CCCOC(=O)c1cc([N+](=O)[O-])cc([N+](=O)[O-])c1 experimental_value="3% (inactive)"
compound=CCOC(=O)/C(=C/c1ccc(Cl)cc1)N(CC)CC experimental_value="-13% (inactive)"
compound=CC(C)/C(Cl)=N\OC(=O)Nc1cccc(F)c1 experimental_value="-3% (inactive)"
compound=CSC(=S)N/N=C(/C)CC(C)C experimental_value="16% (inactive)"
compound=CCOc1cc(C(c2ccc(N(C)C)cc2)c2ccc(N(C)C)cc2)ccc1O experimental_value="0% (inactive)"
compound=Fc1cccc(NC(=S)SCc2ccc(Cl)cc2)c1 experimental_value="23% (inactive)"
compound=Nc1ccc(C(=O)N/C(=C\C=C\c2ccco2)c2nc3c4c(ccc3[nH]2)C(=O)c2ccccc2C4=O)cc1 experimental_value="10% (inactive)"
compound="O=C(O)c1ccc(N=CC2CO2)cc1 (stereo unspecified)" experimental_value="32% (inactive)"

Enquiry: I'd like to know its growth inhibition. The compound in question is `CCCCCCCCCCC[n+]1ccc(C#N)cc1`
Return: 10% (inactive)

Enquiry: I'd like to know its growth inhibition. The compound in question is CCCCCN(CCCCC)CC(=O)OCC1(C)CCCC2(C)C3CCC(C(C)C)=CC3=CCC12 (stereo unspecified)
Return: 2% (inactive)

Enquiry: I'd like to know its growth inhibition. The compound in question is `COc1ccc2c(c1)c(=O)c1c(NCCN(C)C)ccc3nnn2c31`
Return: -10% (inactive)

Data credit: PubChem BioAssay (NCI)
